# IL-6 production (NHDF), IC50 listing for each entry below
Target: T1, cynomolgus IL-17A (cynomolgus, UniProt Q16552 24-155 (human entry), limits assumed)
T1 chain: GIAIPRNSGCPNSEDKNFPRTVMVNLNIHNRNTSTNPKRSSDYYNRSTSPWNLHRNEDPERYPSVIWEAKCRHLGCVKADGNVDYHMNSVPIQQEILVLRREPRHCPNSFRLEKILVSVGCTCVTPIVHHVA
Test: cell-based or functional assay
VALUE_KIND: IL-6 production (NHDF), IC50 (pM)

binder="mAb4168 (antibody, human IgG1, lambda, V domains shown, Framework-engineered mAb; also called engineered form of MOR8103) VH: QVQLQQSGPGLVKPSQTLSLTCAISGDSVSSSSAAWGWIRQSPSRGLEWLGRISYRSKWYNDYAVSVKSRITINPDTSKNQFSLQLNSVTPEDTAVYYCAREVDSTYYSYFDIWGQGTLVTVSS VL: EIVLTQSPATLSLSPGERATLSCRASQNVWAFYLAWYQQKPGQAPRLLIYGASNRATGIPARFSGSGSGTDFTLTISSLEPEDFAVYYCTQYYSSPSLTFGQGTKVEIKG" measured_result=2170
binder="mAb3584 (antibody, human IgG1, lambda, V domains shown, Framework-engineered mAb; also called engineered form of MOR8299) VH: QVQLQQSGPGLVKPSQTLSLTCAISGDSVSSSSAAWGWIRQSPSRGLEWLGRISYRSKWYNDYAVSVKSRITINPDTSKNQFSLQLNSVTPEDTAVYYCAREVDSIYYSYFDIWGQGTLVTVSS VL: EIVLTQSPATLSLSPGERATLSCRASQNVWAFYLAWYQQKPGQAPRLLIYGASNRATGIPARFSGSGSGTDFTLTISSLEPEDFAVYYCQQYRSTLSLTFGQGTKVEIKG" measured_result=823
